B1: 26S proteasome non-ATPase regulatory subunit 4 homolog (Arabidopsis thaliana (Mouse-ear cress)), P55034 (parent)
chain: MVLEATMICIDNSEWMRNGDYSPSRLQAQTEAVNLLCGAKTQSNPENTVGILTMAGKGVRVLTTPTSDLGKILACMHGLDVGGEINLTAAIQIAQLALKHRQNKNQRQRIIVFAGSPIKYEKKALEIVGKRLKKNSVSLDIVNFGEDDDEEKPQKLEALLTAVNNNDGSHIVHVPSGANALSDVLLSTPVFTGDEGASGYVSAAAAAAAAGGDFDFGVDPNIDPELALALRVSMEEERARQEAAAKKAADEAGQKDKDGDTASASQETVARTTDKNAEPMDEDSALLDQAIAMSVGDVNMSEAADEDQDLALALQMSMSGEESSEATGAGNNLLGNQAFISSVLSSLPGVDPNDPAVKELLASLPDESKRTEEEESSSKKGEDEKK

- Variants of: B1
- MEASUREMENT_SETUP: with ubql2_human UBQLN2, Q9UHD9
- Sequence (Q9UHD9 whole entry): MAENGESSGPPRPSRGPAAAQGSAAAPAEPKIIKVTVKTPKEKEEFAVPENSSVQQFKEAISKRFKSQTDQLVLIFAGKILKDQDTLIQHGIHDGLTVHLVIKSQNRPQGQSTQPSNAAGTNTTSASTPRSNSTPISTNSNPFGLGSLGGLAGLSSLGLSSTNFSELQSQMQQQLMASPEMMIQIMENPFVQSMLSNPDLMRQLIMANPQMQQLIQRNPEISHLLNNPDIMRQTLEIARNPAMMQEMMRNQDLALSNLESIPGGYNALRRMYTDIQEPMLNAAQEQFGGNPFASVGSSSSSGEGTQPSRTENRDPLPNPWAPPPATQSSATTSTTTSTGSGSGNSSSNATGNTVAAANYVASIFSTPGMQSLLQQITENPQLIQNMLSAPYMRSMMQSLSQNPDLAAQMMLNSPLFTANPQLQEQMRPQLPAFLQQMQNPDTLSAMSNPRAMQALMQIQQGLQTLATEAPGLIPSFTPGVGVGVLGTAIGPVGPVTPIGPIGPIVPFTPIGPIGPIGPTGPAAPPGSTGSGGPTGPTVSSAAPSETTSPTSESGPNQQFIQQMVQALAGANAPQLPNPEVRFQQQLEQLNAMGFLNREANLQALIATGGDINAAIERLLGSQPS
MEASURED_PARAMETER: effect of a mutation on the interaction

| MUTATION_STRING | MEASURED_PARAMETER | OBSERVED |
| --- | --- | --- |
| L310N;A311N;L312N;A313D;L314N | effect of a mutation on the interaction | with no effect |
| L286N;L287N;Q289N;A290D;L310N;A311N;L312N;A313D;L314N | effect of a mutation on the interaction | with no effect |
| L286N;L287N;Q289N;A290D | effect of a mutation on the interaction | with no effect |
